Origin of measurements: the Human Domainome abundance scans (Beltran et al. 2025)

The following variants are shown together with reported abundance fitness values.
B1: POU domain, class 3, transcription factor 2, residues 356 to 411; numbered along this chain, P20265 (parent)
chain: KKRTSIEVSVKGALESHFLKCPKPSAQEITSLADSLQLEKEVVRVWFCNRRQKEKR

variants of: B1; assay: abundance fitness (aPCA) (normalised: wild type 0, dead -1); higher = more abundant; growth selection in yeast, the domain comes from the species named; details: Homo sapiens
# print the numeric value only

Here are 8 variants together with their reported answers.
Which measured abundance fitness value corresponds to S35Q ?
0.008

Need abundance fitness, item L32P
-0.944

Which value of abundance fitness has been reported for K2E in the records?
-0.07

State the recorded abundance fitness for this entry: A13I
-0.184

Could you tell me which abundance fitness is on file for V8T ?
0.011

Returns the measured abundance fitness for the input variant. Input: R51M
-0.156

Returns the measured abundance fitness for the input variant. Input: E39M
-0.941

Given the entry C48A , report its measured abundance fitness.
-0.096

---
Could you tell me which abundance fitness is on file for Q37R ?
-0.138

Value lookup for abundance fitness; key = Q27Y
-0.268

Please report the recorded abundance fitness for L32W .
-0.915

For the variant I29K , what abundance fitness is on record?
-0.994

Bench note: what abundance fitness did K55H show?
-0.274
